Please respond with reported MIC for every item in the list.
- System: Klebsiella pneumoniae
- Procedure Summary: Antibacterial activity against Klebsiella pneumoniae ATCC 10031 after 24 hrs by broth microdilution method
- Format: functional
- Measurement Context: ATCC 10031, 24 h

[in] Retrieve MIC measured for CC(C)c1csc(-c2nnc3n2NC(c2ccc(O)cc2)S3)n1 (configuration not stated) and print it.
[out] 62.5 µg/mL

[in] Determine from records and report MIC for "COc1ccc(C2=Nn3c(nnc3-c3nc(C(C)C)cs3)SC2)cc1"
[out] 16 µg/mL

[in] Entry "CC(C)c1csc(-c2nn(CN3CCN(C)CC3)c(=S)o2)n1" needs its MIC filled in; supply it.
[out] 16 µg/mL

[in] Give the value of MIC reported for the following: "CC(C)c1csc(-c2nnc3n2N=C(c2ccccc2)CS3)n1"
[out] 125 µg/mL

[in] Using the record for "CC(C)c1csc(-c2nn(CN3CCOCC3)c(=S)n2/N=C/c2ccc(N(C)C)cc2)n1" , state its measured MIC.
[out] 31.2 µg/mL

[in] Output measured MIC for this item: "CC(C)c1csc(-c2n[nH]c(=S)n2NC(=O)c2ccccc2)n1"
[out] 125 µg/mL

[in] Annotate the compound "CC(C)c1csc(-c2nnc3sc(S)nn23)n1" with its measured MIC.
[out] 31.2 µg/mL

[in] Name the recorded MIC of the compound listed here: "COc1cc(/C=N/n2c(-c3nc(C(C)C)cs3)nn(CN3CCOCC3)c2=S)cc(OC)c1OC"
[out] 16 µg/mL

[in] Item "CC(C)c1csc(-c2nn(CN3CCN(C)CC3)c(=S)n2/N=C/c2ccccc2Cl)n1" : provide MIC
[out] 16 µg/mL

[in] Using known records, supply MIC for CC(C)c1csc(-c2nnc3n2NC(c2ccccc2Cl)S3)n1 (configuration not stated)
[out] 31.2 µg/mL

[in] Entry "COc1ccc(/C=N/n2c(-c3nc(C(C)C)cs3)nn(CN3CCOCC3)c2=S)cc1" needs its MIC filled in; supply it.
[out] 31.2 µg/mL

[in] Return the recorded MIC value; entry: "Cc1ccc(C(=O)Nn2c(-c3nc(C(C)C)cs3)n[nH]c2=S)cc1"
[out] 62.5 µg/mL

[in] Name the recorded MIC of the item "COc1ccc(/C=N/n2c(-c3nc(C(C)C)cs3)nn(CN3CCN(C)CC3)c2=S)cc1" in your answer.
[out] 31.2 µg/mL

[in] Give the reported value of MIC for this record: "CC(C)c1csc(-c2nn(CN3CCOCC3)c(=S)o2)n1"
[out] 31.2 µg/mL

[in] Quote MIC reported for CC(C)c1csc(-c2nnc3n2NC(c2ccc([N+](=O)[O-])cc2)S3)n1 (configuration not stated) please.
[out] 31.2 µg/mL

[in] Output MIC of CC(C)c1csc(-c2nnc3n2NC(c2ccc(N(C)C)cc2)S3)n1 (configuration not stated)
[out] 125 µg/mL

[in] Quick one: give measured MIC for O=C(O)c1cn(C2CC2)c2cc(N3CCNCC3)c(F)cc2c1=O [CIPROFLOXACIN]
[out] ≤ 1 µg/mL

[in] Provide MIC value for the following compound: "Cc1nn2c(-c3nc(C(C)C)cs3)nnc2s1"
[out] 16 µg/mL

[in] Give MIC for "COc1cc(/C=N/n2c(-c3nc(C(C)C)cs3)nn(CN3CCN(C)CC3)c2=S)cc(OC)c1OC"
[out] 16 µg/mL

[in] Tell me measured MIC for CCn1cc(C(=O)O)c(=O)c2cc(F)c(N3CCNCC3)cc21 [NORFLOXACIN] please.
[out] ≤ 1 µg/mL

[in] Supply recorded MIC for COc1cc(C2Nn3c(nnc3-c3nc(C(C)C)cs3)S2)cc(OC)c1OC (configuration not stated) here.
[out] 62.5 µg/mL

[in] Using the record for "CC(C)c1csc(-c2nnc3n2N=C(c2ccc(Br)cc2)CS3)n1" , state its measured MIC.
[out] 16 µg/mL
